# measurementNotes: Human HepG2 cell viability assay in 384 well format
# Assay type: toxicity, cell-based
# Design: dose 125 nL, time 70.5 hour; concentration not given beside the values
# conditionSet: HepG2 cells, read-out: Inhibition
Each entry below carries its recorded cytotoxicity at 70.5 h.
Return type: number; implicit unit %.

>>> df
                                   compound          measuredmetric  numericvalue
0  CNC(=O)[C@@]12CCO[C@@H]1CCN(S(=O)(=O)c1ccccc1C)C2  cytotoxicity at 70.5 h         -10.5
1  Cn1cc(C[C@H]2[C@@H](O)CCN2C(=O)C2CC=CC2)cn1  cytotoxicity at 70.5 h          7.47
2            Cc1cc(-c2nn3c(C4CC4)nnc3s2)on1  cytotoxicity at 70.5 h          12.2
3  O=C(NC1CC(=O)N(C2Cc3ccccc3C2)C1)c1cnccn1 (centres undefined)  cytotoxicity at 70.5 h         -4.83
4  N#CCCN(Cc1ccccn1)C(=O)c1cccc(CN2CCCC2)c1  cytotoxicity at 70.5 h         -1.86
5    Oc1c(F)cc(CNc2cccc(-c3nnc[nH]3)c2)cc1F  cytotoxicity at 70.5 h         -9.32
6  CC(C)(C)OC(=O)N1CCN(c2ccc(F)cc2)CC1C(=O)O (centres undefined)  cytotoxicity at 70.5 h         -1.03
7  CCCS(=O)(=O)N1CC[C@H]2OCC[C@@]2(c2nnc(C)o2)C1  cytotoxicity at 70.5 h          8.91
8      Cc1nnc2ccc(NCC3(N4CCCCC4)CCOCC3)nn12  cytotoxicity at 70.5 h          -4.4
9  COc1ccc(C)cc1C(C)NCc1cccn1C (centres undefined)  cytotoxicity at 70.5 h        -0.611

stdin: Determine from records and report cytotoxicity at 70.5 h for CCOc1cc(=O)n2c(c1C(=O)OCc1ccc(OC)cc1)CCCC2
stdout: -14.9

stdin: Provide one value: measured cytotoxicity at 70.5 h of CCOc1cc(CNC(=O)CNC(=O)CC2CCCCC2)ccn1
stdout: -6.29

stdin: Tell me cytotoxicity at 70.5 h reported for Cc1nc(C(=O)N2CCc3c(nc(-c4ccncc4)[nH]c3=O)C2)cs1
stdout: -8.1
